Sourced from patent US20110224240A1

Assay: Pharmacokinetic study in mice, plasma
Type: in vivo
Settings: Swiss Webster, mouse, plasma, po, 60 mg/kg, mice, Fasted, PO, 60 mg/kg; read-out: Plasma t½ (converted)
Readout Type: half-life (h)
Field: numeric (h). Do not append units.

The recorded half-life for COc1ccc(N(C)c2nc(CN)nc3ccccc23)cc1 [Compound 1] is 18.3

====

Test: Pharmacokinetic study in mice, brain
Type: in vivo
Conditions: Swiss Webster, mouse, brain, other: oral or intravenous; after oral or intravenous dosing; read-out: exposure in the brain relative to that in the plasma
Method: Animals were dosed with approximately 2.5 mg/kg i.v. in the tail vein or 5, 10, 30, or 60 mg/kg p.o. in fed and 60 mg/kg p.o. in a fasted state. Blood samples and whole brains were collected from five mice at each of the […] collection time points (approximately 0.05, 0.25, 1.0, 2.0, 4.0, 8.0, 12.0 and 24.0 hours) after administration of the dose. Plasma was collected from blood samples, and whole brain sample were homoginized. Both tissues were analyzed for the concentration of Compound 1. […]
Readout Type: Kp

Entry COc1ccc(N(C)c2nc(CN)nc3ccccc23)cc1 [Compound 1] ; Kp = ~7
